- PROTOCOL: inhibitors of SNCA 5'UTR-driven reporter translation, confirmation, H4 neuroglioma cells, luminescence (AID 1988)
- Assay type: functional, cell-based
The source made the active and inactive calls.
Consider the following compounds; for each one, report its EC50.

CCOc1ccc(-n2c(C)cc(C(=O)CCl)c2C)cc1 = > 120 µM (not active)
COc1ccc(NN/C=C2/C(=O)NC(=O)N(c3ccc(C)c(C)c3)C2=O)cc1 = > 120 µM (not active)
O=C1NCCc2c1[nH]c1ccc([N+](=O)[O-])cc21 = 16.3 µM (active)
CC(=O)c1ccc(Oc2cc(C)nc(-n3nc(C)cc3C)n2)cc1 = 0.44 µM (active)
CC(C)OCCCNc1nc2c(c(=O)n(Cc3ccccc3F)c(=O)n2C)n1C = > 120 µM (not active)

// batch mode: one EC50 value per listed entry
1. COc1ccccc1N1CCN(C(=O)CCc2nnc3ccc(N4CCC(C)CC4)nn23)CC1
2. COc1ccc(-c2nc(CS(=O)(=O)CC(=O)NCCCc3ccccc3)c(C)o2)cc1

[A]
1: 17.3 µM (active); 2: 14.5 µM (active)

###

Let's go through some IC50 measurements on Glyceraldehyde-3-phosphate dehydrogenase (Homo sapiens, UniProt P04406) together.
Sequence (P04406 whole entry): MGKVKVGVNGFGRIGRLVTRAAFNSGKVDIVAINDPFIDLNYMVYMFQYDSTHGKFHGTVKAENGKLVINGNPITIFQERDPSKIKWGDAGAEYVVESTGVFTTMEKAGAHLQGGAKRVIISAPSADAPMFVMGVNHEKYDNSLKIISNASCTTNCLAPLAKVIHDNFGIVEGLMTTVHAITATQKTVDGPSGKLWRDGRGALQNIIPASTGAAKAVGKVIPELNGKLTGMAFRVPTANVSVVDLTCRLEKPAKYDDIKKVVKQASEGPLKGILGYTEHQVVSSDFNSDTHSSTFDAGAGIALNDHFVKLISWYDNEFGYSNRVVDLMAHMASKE

Previously resolved entries follow.
O=C1C(Cl)=C(N2CCOCC2)C(=O)N1c1ccc(Cl)cc1Cl = > 10 µM (inconclusive)
O=C1C(Cl)=C(N2CCOCC2)C(=O)N1c1cccc(Cl)c1 = > 10 µM (inconclusive)
COc1cc(/C=C2\SC(N(C)c3ccc(O)cc3)=NC2=O)ccc1OCC(=O)O = > 100 µM (not active)
CCCCCCCCCCCCCCCCCCC=CCCCCCC(=O)O = > 100 µM (not active)
O=C1c2c(Cl)c(Cl)c(Cl)c(Cl)c2C(=O)N1c1nc(Cc2ccccc2)n[nH]1 = > 100 µM (not active)

Alright, here's another molecule for you.
[Q] Form field - read-out: IC50; system: Glyceraldehyde-3-phosphate dehydrogenase (Homo sapiens, UniProt P04406); submitted item: O=C(O)C1Nc2c(Cl)cc(Cl)c(Cl)c2C2C=CCC12 (stereo unspecified)
[A] > 100 µM (not active)

###

Consider the following compounds; for each one, report its AC50.
- TARGET ENTITY: FAD-linked sulfhydryl oxidase ALR (Homo sapiens, UniProt P55789)
- Sequence (P55789 whole entry): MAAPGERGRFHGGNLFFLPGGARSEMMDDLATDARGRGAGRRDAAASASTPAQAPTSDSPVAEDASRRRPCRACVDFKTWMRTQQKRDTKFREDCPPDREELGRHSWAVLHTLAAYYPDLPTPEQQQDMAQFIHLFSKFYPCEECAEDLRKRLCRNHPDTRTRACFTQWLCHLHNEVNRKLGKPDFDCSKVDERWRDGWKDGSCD
- PROTOCOL: inhibitors of human ALR sulfhydryl oxidase, dose response, biochemical, H2O2 detection, luminescence, cherry-pick (AID 493248)
The source made the active and inactive calls.

C=C(C)CC1Nc2ccccc2NC1CC(=C)C (stereo unspecified) = 5560 nM (active)
COc1ccc(/C=N/Nc2nc3ccccc3[nH]2)c(OC)c1OC = 278 nM (active)
O=C(CNCc1ccco1)Nc1ccc(N2CCCCCC2)cc1 = 224 nM (active)
CCCn1c(CCC(=O)O)ccc1-c1cccs1 = 8500 nM (active)
Sc1nncn1/N=C/c1cccc(Oc2ccccc2)c1 = 2090 nM (active)
COc1cccc(OC)c1C(=O)Nc1ccc(N2CCCCC2)cc1 = 7850 nM (active)
CCCc1nc2ccccc2c(=O)n1/N=C/c1ccc(O)c(O)c1 = 577 nM (active)
COc1cccc(-c2nnc(S)n2Cc2ccco2)c1OC = 3650 nM (active)

// batch mode: one AC50 value per listed entry
1. Cc1cc(-c2nsc(=O)o2)c(S(C)(=O)=O)s1
2. COc1ccc(N/N=C(\C=N\O)C(=O)c2ccc(OC)cc2)cc1
3. Nc1ccc2oc3ccc(N)cc3c(=O)c2c1

[A]
1: 3860 nM (active); 2: 9 nM (active); 3: 1070 nM (active)
